B1: Ribonuclease, P00648 (parent)
chain: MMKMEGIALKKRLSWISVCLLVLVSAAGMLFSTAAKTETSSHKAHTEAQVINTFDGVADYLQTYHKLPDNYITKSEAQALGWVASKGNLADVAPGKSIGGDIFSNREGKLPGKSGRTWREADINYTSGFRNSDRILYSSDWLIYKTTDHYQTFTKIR

variants of: B1; conditions: Bacillus amyloliquefaciens; pH 6.3; 25 °C; Urea; Fluorescence; MES 50 micro M; reversible: yes; structure 1BNI; whole UniProt chain shown
I'd appreciate it if you could label each record using ddG of mutation (higher = less stable) and these ranges: bottom bin = under 1 kcal/mol, middle bin = from 1 kcal/mol up to 2 kcal/mol, top bin = 2 kcal/mol and over

Completed entries (count: 3):
I51V; bottom bin
T146V; top bin
I135V; middle bin

Now let's try a different one.
**Query** Using the reported ddG of mutation (higher = less stable), which band applies to `Y125F` ?
**Result** middle bin

Source: FireProtDB (doi:10.1016/0022-2836(92)90563-y)
